tested on: Escherichia coli TOP10; test: shrunken log2 fold change of peptide-encoding DNA abundance (4.5 h post-induction vs induction); higher = less antimicrobial activity (less host growth inhibition); conditions: time post-induction: 4.5 h; library: site-saturation at positions 5, 18, 19, 20
Below, each of the sequences is paired with its reported shrunken log2 fold change value.
Simply state the number, no unit and no words.

Recorded shrunken log2 fold change, per entry:
>>> df
        construct_sequence             system_name      experimental_endpoint  value_reported
0  RRIRSRPPRLPRPRPRPHHLPRP  Escherichia coli TOP10  shrunken log2 fold change          -0.903
1  RRIRWRPPRLPRPRPRPHGEPRP  Escherichia coli TOP10  shrunken log2 fold change           0.135
2  RRIRVRPPRLPRPRPRPQGLPRP  Escherichia coli TOP10  shrunken log2 fold change           -0.29
3  RRIRERPPRLPRPRPRPPFQPRP  Escherichia coli TOP10  shrunken log2 fold change           0.016
4  RRIRYRPPRLPRPRPRPSHMPRP  Escherichia coli TOP10  shrunken log2 fold change         -0.0573
5  RRIRVRPPRLPRPRPRPYIDPRP  Escherichia coli TOP10  shrunken log2 fold change          -0.372

Sample `RRIRLRPPRLPRPRPRPCWMPRP` — what was its shrunken log2 fold change?
-0.168

Param item: `RRIRDRPPRLPRPRPRPFQPPRP`
0.0201

Param item: `RRIRWRPPRLPRPRPRPMLCPRP`
0.216

Param item: `RRIRGRPPRLPRPRPRPGLYPRP`
0.341

Param item: `RRIRCRPPRLPRPRPRPRIPPRP`
-0.00295

---

test system: Escherichia coli TOP10; experiment: shrunken log2 fold change of peptide-encoding DNA abundance (4.5 h post-induction vs induction); higher = less antimicrobial activity (less host growth inhibition); details: time post-induction: 4.5 h; library: site-saturation at positions 5, 18, 19, 20
If the reported shrunken log2 fold change equals or exceeds -0.07, assign true (1). If not, assign false (0).

>>> df
        construct_sequence  assigned_class
0  RRIRVRPPRLPRPRPRPGEVPRP        true (1)
1  RRIRPRPPRLPRPRPRPDFLPRP       false (0)
2  RRIRTRPPRLPRPRPRPYVQPRP       false (0)
3  RRIRERPPRLPRPRPRPQLSPRP        true (1)
4  RRIRRRPPRLPRPRPRPRYYPRP       false (0)

// inclusive: shrunken log2 fold change at least -0.07? input: `RRIRVRPPRLPRPRPRPTMEPRP`
false (0)

Param item: `RRIRSRPPRLPRPRPRPRMKPRP`
true (1)

Param item: `RRIRNRPPRLPRPRPRPQDQPRP`
false (0)

Param item: `RRIRMRPPRLPRPRPRPEQFPRP`
true (1)

---

test system: Escherichia coli TOP10; assay: shrunken log2 fold change of peptide-encoding DNA abundance (4.5 h post-induction vs induction); higher = less antimicrobial activity (less host growth inhibition); conditions: time post-induction: 4.5 h; library: site-saturation at positions 5, 18, 19, 20;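 note: peptides expressed intracellularly from a pBAD plasmid library in pooled LB shake-flask culture, induced with 0.3% L-arabinose, DNA abundance read by NGS, three biological replicates, DESeq2 with apeglm shrinkage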
Experimental endpoint: shrunken log2 fold change
Simply state the number, no unit and no words.

Recorded shrunken log2 fold change, per entry:
        construct_sequence             system_name      experimental_endpoint  value_reported
0  RRIRNRPPRLPRPRPRPMRHPRP  Escherichia coli TOP10  shrunken log2 fold change           -0.18
1  RRIRQRPPRLPRPRPRPGAEPRP  Escherichia coli TOP10  shrunken log2 fold change            0.39
2  RRIRARPPRLPRPRPRPTTNPRP  Escherichia coli TOP10  shrunken log2 fold change           0.389
3  RRIRFRPPRLPRPRPRPAIPPRP  Escherichia coli TOP10  shrunken log2 fold change         -0.0151
4  RRIRDRPPRLPRPRPRPQDQPRP  Escherichia coli TOP10  shrunken log2 fold change          -0.144

Notebook: pull reported shrunken log2 fold change for Escherichia coli TOP10, entry `RRIRRRPPRLPRPRPRPRGKPRP`
0.694

Param item: `RRIRKRPPRLPRPRPRPAMGPRP`
0.14

Param item: `RRIRFRPPRLPRPRPRPSCVPRP`
-0.443
